Cited source: the supplement of paper PMC12317010

Assay: collision cross section in nitrogen (drift tube, single-field); higher = larger gas-phase ion size;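 also: chemical standards at 10 µM analysed by drift tube IMS-QTOF MS in about 3.95 torr nitrogen, mean of duplicate injections differing ≤1%, mass error below 10 ppm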
Settings: ion type: [M+H]; ion source: ESI; ion mode: Positive
Counter-ions that a name gives are not always drawn.
Please go through the items and note down their collision cross section in nitrogen.
Give a bare numeral; the unit Å² is implied.

stdin: For the molecule shown here, CC(C)(C)C(=O)C(Oc1ccc(Cl)cc1)n1cncn1 (centres undefined) , give the reported collision cross section in nitrogen.
stdout: 173.6

stdin: For the molecule shown here, `Cc1c(-c2cccnc2)c2ccccc2n1CCCCC(=O)O` , give the reported collision cross section in nitrogen.
stdout: 176.7

stdin: For the molecule shown here, `c1ccc(C(O[C@@H]2CCCN(CCc3ccc4c(c3)OCO4)C2)c2ccccc2)cc1` , give the reported collision cross section in nitrogen.
stdout: 192.4

stdin: For the molecule shown here, CN1[C@@H]2C[C@@H](OC(=O)[C@H](CO)c3ccccc3)C[C@H]1[C@@H]1O[C@@H]12 [Scopolamine hydrobromide] , give the reported collision cross section in nitrogen.
stdout: 171.7

stdin: For the molecule shown here, `c1coc(-c2nc3ccccc3[nH]2)c1` , give the reported collision cross section in nitrogen.
stdout: 136.8

stdin: For the molecule shown here, `Nc1cccc2ccccc12` , give the reported collision cross section in nitrogen.
stdout: 127.6

stdin: For the molecule shown here, C[C@]12CC[C@@H]3c4ccc(O)cc4C[C@@H](CCCCCCCCCS(=O)CCCC(F)(F)C(F)(F)F)[C@H]3[C@@H]1CC[C@@H]2O (some centres undefined) , give the reported collision cross section in nitrogen.
stdout: 242.9

stdin: For the molecule shown here, `Oc1c(I)cc(I)c2cccnc12` , give the reported collision cross section in nitrogen.
stdout: 146.4

stdin: For the molecule shown here, Cc1ccc(S(=O)(=O)NC(=O)NN2CCCCCC2)cc1 [Tolazamide] , give the reported collision cross section in nitrogen.
stdout: 175.4

----------
Please go through the items and note down their collision cross section in nitrogen.
Experiment: collision cross section in nitrogen (drift tube, single-field); higher = larger gas-phase ion size
Conditions: ion type: [M+H]; ion source: APCI; ion mode: Positive

stdin: For the compound shown here, `CSc1nc(N=[N+]=[N-])nc(NC(C)C)n1` , give the reported collision cross section in nitrogen.
stdout: 149.1 Å²

stdin: For the compound shown here, `O=C(NCc1cccnc1)Nc1ccc([N+](=O)[O-])cc1` , give the reported collision cross section in nitrogen.
stdout: 174.7 Å²

stdin: For the compound shown here, `Nc1c(Oc2ccccc2)cc(O)c2c1C(=O)c1ccccc1C2=O` , give the reported collision cross section in nitrogen.
stdout: 177.7 Å²

stdin: For the compound shown here, `CO/N=C(/C(=O)OC)c1ccccc1CO/N=C(\C)c1cccc(C(F)(F)F)c1` , give the reported collision cross section in nitrogen.
stdout: 187.4 Å²

stdin: For the compound shown here, `CCc1nn(C2CCCCC2)c2cc([C@]3(C#N)CC[C@@H](C(=O)O)CC3)ccc12` , give the reported collision cross section in nitrogen.
stdout: 206 Å²

stdin: For the compound shown here, CN1Cc2c(N)cccc2C(c2ccccc2)C1 (configuration not stated) , give the reported collision cross section in nitrogen.
stdout: 155.8 Å²

stdin: For the compound shown here, COCCCOc1ccnc(CS(=O)c2nc3ccccc3[nH]2)c1C (configuration not stated) [Rabeprazole sodium] , give the reported collision cross section in nitrogen.
stdout: 189.4 Å²

stdin: For the compound shown here, `CCOC(=O)c1cn2nc(OP(=S)(OCC)OCC)cc2nc1C` , give the reported collision cross section in nitrogen.
stdout: 192.5 Å²

stdin: For the compound shown here, CCN(CC)C(=O)C(C)Oc1cccc2ccccc12 (configuration not stated) [Napropamide] , give the reported collision cross section in nitrogen.
stdout: 163.8 Å²

stdin: For the compound shown here, `CCN(CC)C(=O)c1cccc(C)c1` , give the reported collision cross section in nitrogen.
stdout: 143.5 Å²

stdin: For the compound shown here, `CC[C@]12CCCN3CCc4c(n(c5ccccc45)[C@@](O)(C(=O)OC)C1)[C@@H]32` , give the reported collision cross section in nitrogen.
stdout: 182.5 Å²

stdin: For the compound shown here, `Nc1nc2nc[nH]c2c(=S)[nH]1` , give the reported collision cross section in nitrogen.
stdout: 132.4 Å²

stdin: For the compound shown here, `Nc1ccc(NCCO)c([N+](=O)[O-])c1` , give the reported collision cross section in nitrogen.
stdout: 141.6 Å²

stdin: For the compound shown here, `CCc1nc(N)nc(N)c1-c1ccc(Cl)cc1` , give the reported collision cross section in nitrogen.
stdout: 158.8 Å²

stdin: For the compound shown here, `O=S(=O)(O)CCCN1CCOCC1` , give the reported collision cross section in nitrogen.
stdout: 142.7 Å²

stdin: For the compound shown here, `CC(C)(c1ccccc1)c1cc(-n2nc3ccccc3n2)c(O)c(C(C)(C)c2ccccc2)c1` , give the reported collision cross section in nitrogen.
stdout: 218 Å²

stdin: For the compound shown here, Cc1cccc(Nc2cc(Cl)nc(SCC(=O)O)n2)c1C [[4-Chloro-6-(2,3-xylidino)-2-pyrimidinylthio]acetic acid] , give the reported collision cross section in nitrogen.
stdout: 175.6 Å²

stdin: For the compound shown here, `CCNc1nc(NC(C)C)nc(SC)n1` , give the reported collision cross section in nitrogen.
stdout: 155.2 Å²

stdin: For the compound shown here, `CN1CCN(c2ccccc2/C=C2\SCCN(c3ccc(Cl)c(Cl)c3)C2=O)CC1` , give the reported collision cross section in nitrogen.
stdout: 204 Å²

stdin: For the compound shown here, `CCCC[C@H]1CN(CC2CCOCC2)C(=O)OC12CCN(C1(C)CCN(C(=O)c3c(C)ncnc3C)CC1)CC2` , give the reported collision cross section in nitrogen.
stdout: 245 Å²

stdin: For the compound shown here, `COC(=O)Nc1nc2ccccc2[nH]1` , give the reported collision cross section in nitrogen.
stdout: 138.7 Å²

stdin: For the compound shown here, `O=C(CCCCCCCCc1cccnc1)N1CCC(C=C(c2ccccc2)c2ccccc2)CC1` , give the reported collision cross section in nitrogen.
stdout: 239.1 Å²

----------
Test: collision cross section in nitrogen (drift tube, single-field); higher = larger gas-phase ion size
Conditions: ion type: [M-H]; ion source: ESI; ion mode: Negative
Structures can show the parent of a compound that is named as a salt.
Measurement kind: collision cross section in nitrogen (Å²)
Give a bare numeral; the unit Å² is implied.

stdin: For the molecule shown here, `O=[N+]([O-])c1ccccc1O` , give the reported collision cross section in nitrogen.
stdout: 121.2

stdin: For the molecule shown here, `O=S(=O)(c1ccc(OCc2ccccc2)cc1)c1ccccc1O` , give the reported collision cross section in nitrogen.
stdout: 183.9

stdin: For the molecule shown here, `Nc1nc2ccc([N+](=O)[O-])cc2s1` , give the reported collision cross section in nitrogen.
stdout: 131.3

stdin: For the molecule shown here, `Cc1cccc(Nc2ccccc2C(=O)O)c1C` , give the reported collision cross section in nitrogen.
stdout: 160.9

stdin: For the molecule shown here, O=S(=O)(NS(=O)(=O)C(F)(F)F)C(F)(F)F [Lithium bis[(trifluoromethyl)sulfonyl]azanide] , give the reported collision cross section in nitrogen.
stdout: 129.9

stdin: For the molecule shown here, COc1cc(S(=O)(=O)Nc2ccccc2)c(OC)cc1N [4-Amino-2,5-dimethoxy-N-phenylbenzenesulfonamide] , give the reported collision cross section in nitrogen.
stdout: 169

stdin: For the molecule shown here, `O=C(NO)C1(NS(=O)(=O)c2ccc(Oc3ccc(F)cc3)cc2)CCOCC1` , give the reported collision cross section in nitrogen.
stdout: 184.6

stdin: For the molecule shown here, `O=C1c2ccccc2C(=O)C1c1ccc2ccccc2n1` , give the reported collision cross section in nitrogen.
stdout: 163.8

stdin: For the molecule shown here, `CCCc1ccc(O)cc1` , give the reported collision cross section in nitrogen.
stdout: 134.5

stdin: For the molecule shown here, `COc1cc(O)c(C(=O)c2ccccc2)cc1S(=O)(=O)O` , give the reported collision cross section in nitrogen.
stdout: 168.1

stdin: For the molecule shown here, `CS(=O)(=O)c1cc(C(F)(F)F)ccc1C(=O)c1cnoc1C1CC1` , give the reported collision cross section in nitrogen.
stdout: 175.5

stdin: For the molecule shown here, CC(C)C1(C)N=C(c2ncccc2C(=O)O)NC1=O (stereo not given) , give the reported collision cross section in nitrogen.
stdout: 161.8

stdin: For the molecule shown here, `C[C@]12C=CC3=C4CCC(=O)C=C4CC[C@H]3[C@@H]1CC[C@@H]2O` , give the reported collision cross section in nitrogen.
stdout: 168.7

stdin: For the molecule shown here, CCN(Cc1cccc(S(=O)(=O)O)c1)c1ccccc1 [3-((Ethylphenylamino)methyl)benzenesulfonic acid] , give the reported collision cross section in nitrogen.
stdout: 175.5

stdin: For the molecule shown here, `Nc1c(Oc2ccccc2)cc(O)c2c1C(=O)c1ccccc1C2=O` , give the reported collision cross section in nitrogen.
stdout: 175.8

stdin: For the molecule shown here, `CCOc1ccc(N=Nc2ccc(C=Cc3ccc(N=Nc4ccc(OCC)cc4)cc3S(=O)(=O)O)c(S(=O)(=O)O)c2)cc1` , give the reported collision cross section in nitrogen.
stdout: 279.3

stdin: For the molecule shown here, CC(C)(C)NC(=O)[C@H]1CC[C@H]2[C@@H]3CC[C@H]4NC(=O)C=C[C@]4(C)[C@H]3CC[C@]12C [Finasteride] , give the reported collision cross section in nitrogen.
stdout: 198.1

stdin: For the molecule shown here, O=C(Nc1ccc2c(O)c(N=Nc3ccc(N=Nc4ccc(S(=O)(=O)O)cc4)cc3)c(S(=O)(=O)O)cc2c1)c1ccccc1 [C.I. Direct Red 81 disodium salt] , give the reported collision cross section in nitrogen.
stdout: 283.1

stdin: For the molecule shown here, `Cn1c(=O)[nH]c2ncn(C)c2c1=O` , give the reported collision cross section in nitrogen.
stdout: 136.8

stdin: For the molecule shown here, CC(C)(C)c1cc(CCC(=O)NCCCCCCNC(=O)CCc2cc(C(C)(C)C)c(O)c(C(C)(C)C)c2)cc(C(C)(C)C)c1O [Antioxidant 1098] , give the reported collision cross section in nitrogen.
stdout: 252.1
